Target: recombinant human cGAS (Homo sapiens (Human), UniProt Q8N884)
Sequence (Q8N884 whole entry): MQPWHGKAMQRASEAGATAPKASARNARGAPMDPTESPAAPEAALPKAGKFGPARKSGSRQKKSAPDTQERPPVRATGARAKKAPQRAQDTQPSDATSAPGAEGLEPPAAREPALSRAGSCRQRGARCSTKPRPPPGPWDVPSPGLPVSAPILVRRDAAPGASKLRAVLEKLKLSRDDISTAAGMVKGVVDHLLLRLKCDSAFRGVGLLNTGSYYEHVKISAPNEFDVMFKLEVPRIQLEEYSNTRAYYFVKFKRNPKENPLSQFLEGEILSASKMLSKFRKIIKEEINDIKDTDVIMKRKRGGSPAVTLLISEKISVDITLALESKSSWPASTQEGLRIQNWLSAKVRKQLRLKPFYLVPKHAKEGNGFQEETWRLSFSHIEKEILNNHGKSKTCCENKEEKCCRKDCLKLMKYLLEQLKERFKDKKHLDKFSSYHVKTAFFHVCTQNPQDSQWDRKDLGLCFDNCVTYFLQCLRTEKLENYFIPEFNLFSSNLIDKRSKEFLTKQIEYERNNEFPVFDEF
Assay: In vitro inhibition assay of cGAS activity (cGAMP production, RapidFire mass spectrometry)
Type: biochemical
Conditions: 10 nM recombinant human cGAS, 60 nM 75-bp dsDNA, ATP, GTP, room temperature 3 hours, read-out: IC50 (μM), In vitro inhibition assay for Compounds 95-348
Would you mind sorting the entries by IC50 according to these classes? b0 = under 0.02 µM, b1 = from 0.02 µM up to 0.06 µM, b2 = 0.06 µM and over

> print(dat)
                                   compound  classification
1  OCCCNc1cc(Cl)c(F)c2c1c(-c1cn[nH]c1)cn2-c1cn(CCO)nn1 [Example 173]              b0

Turning now to a further compound:
Query: Sort CN(C)C(=O)NCC(=O)N1CCn2c(c(-c3cn[nH]c3)c3ccc(Cl)c(Cl)c32)C1 [Example 182] into one of the categories.
Reply: b1

###

Molecular target: recombinant human cGAS (Homo sapiens (Human))
Assay: In vitro inhibition assay of cGAS activity (cGAMP production, RapidFire mass spectrometry)
Format: biochemical
Details: 10 nM recombinant human cGAS, 60 nM 75-bp dsDNA, ATP, GTP, room temperature 3 hours, read-out: IC50 (μM), In vitro inhibition assay for Compounds 95-348
parameter: IC50 (µM)
Write the value in µM as a bare number.

These solved cases illustrate the format of a correct answer.
> print(dat)
                                   molecule  parameter  output.unit  result.value
1  CN(C)C(=O)CC(=O)N1CCn2c(c(-c3cn[nH]c3)c3ccc(Cl)c(Cl)c32)C1 [Example 302]       IC50           µM        0.0323
2  OCC(F)(F)CNc1cc(Cl)c(Cl)c2[nH]cc(-c3cn[nH]c3)c12 [Example 186]       IC50           µM        0.0127
3  FC(F)CNc1cc(Cl)c(Cl)c2[nH]cc(-c3cn[nH]c3)c12 [Example 122]       IC50           µM        0.0137

# next molecule below
Query: Given the entry CN1CCOC(C(=O)N2CCn3c(c(-c4cn[nH]c4)c4c(OCC#N)cc(Cl)c(Cl)c43)C2)C1 (stereo not shown) [Example 294] , report its measured IC50.
Reply: 0.0479

###

Target: recombinant human cGAS (Homo sapiens (Human))
Experiment: In vitro inhibition assay of cGAS activity (cGAMP production, RapidFire mass spectrometry)
Type: biochemical
Details: 10 nM recombinant human cGAS, 60 nM 75-bp dsDNA, ATP, GTP, room temperature 3 hours, read-out: IC50 (μM), In vitro inhibition assay for Compounds 95-348
Structures can show the parent of a compound that is named as a salt.
parameter: log10(IC50) (log10 of the value in µM)
// stored as log10 of IC50 expressed in µM

> print(dat)
                                   compound    parameter  result.value
1  OCCCNc1cc(Cl)c(Cl)c2[nH]nc(-c3cn[nH]c3)c12  log10(IC50)         -2.28
2  O=C(CO)NC1CCn2c1c(-c1cn[nH]c1)c1ccc(Cl)c(Cl)c12 (centres unmarked) [Example 237]  log10(IC50)         -1.82
3  CNNc1cc(Cl)c(Cl)c2[nH]cc(-c3cn[nH]c3)c12 [Example 215, hydrochloride]  log10(IC50)         -1.06
4  CN1CC(C(=O)N2CCn3c(c(-c4cn[nH]c4)c4ccc(Cl)c(Cl)c43)C2)CCC1=O (centres unmarked)  log10(IC50)         -1.42
5  COCCN1CCn2c(c(-c3cn[nH]c3)c3c(NC(=O)C(F)F)cc(Cl)c(Cl)c32)C1=O  log10(IC50)         -1.48

Query: Fill in: log10(IC50) of OCCCOc1cc(Cl)c(Cl)c2[nH]cc(-c3cn[nH]c3)c12 is ___
Reply: -2.49

Query: Would you mind doing N#CCOc1cc(Cl)c(Cl)c2c1c(-c1cn[nH]c1)c1n2CCC1CO (centres unmarked) as well?
Reply: -1.91

###

Item-by-item account of IC50
System: cGAS activity in THP1 cells (IFNb as marker)
Assay: Cellular assay to measure cGAS activity (IFNb production in PMA-differentiated THP1 cells stimulated by RDG-Adenovirus-GFP)
Assay type: cell-based, human
Conditions: Homo sapiens, THP-1, THP1 cells, PMA differentiated, RDG-Adenovirus-GFP 1000 MOI, IFNb AlphaLISA, overnight incubation; read-out: IC50 (μM), Cellular assay for Compounds 95-348
Just the number in µM, nothing appended.

Query: Need IC50 of N#CCOc1cc(Cl)c(Cl)c2c1c(-c1cn[nH]c1)c1n2CCN(CCO)C1=O [Example 142] , thanks.
Reply: 3.14

Query: Here is the next compound: OCCCNc1cc(Cl)c(Cl)c2[nH]cc(-c3cn[nH]c3)c12 [Example 144]
Reply: 1.47

Query: Also O=C(Nc1cc(Cl)c(Cl)c2c1c(-c1cn[nH]c1)c1n2CCN(C(=O)[C@@H]2COCCO2)C1)C(F)F [Example 273] , if possible.
Reply: 0.56

Query: Note, next up: O=C(Nc1cc(Cl)cc2[nH]cc(-c3cn[nH]c3)c12)C(F)F [Example 219]
Reply: 0.35

###

System: cGAS activity in THP1 cells (IFNb as marker)
Experiment: Cellular assay to measure cGAS activity (IFNb production in PMA-differentiated THP1 cells stimulated by RDG-Adenovirus-GFP)
Assay type: cell-based, human
Conditions: Homo sapiens, THP-1, THP1 cells, PMA differentiated, RDG-Adenovirus-GFP 1000 MOI, IFNb AlphaLISA, overnight incubation; read-out: IC50 (μM), Cellular assay for Compounds 95-348
The following molecules are shown together with reported IC50 values.
Unit µM implied. Number only.

Here's what some known entries look like.
> print(dat)
                                   molecule  parameter  output.unit  result.value
1  OCC(CO)CNc1cc(Cl)c(Cl)c2[nH]cc(-c3cn[nH]c3)c12       IC50           µM          1.29
2  OCC(O)Cn1cc(-n2cc(-c3cn[nH]c3)c3ccc(Cl)c(Cl)c32)nn1 (centres unmarked)       IC50           µM          7.11
3  CC(=O)N1CCn2c(c(-c3cn[nH]c3)c3c(NCC#N)cc(Cl)c(Cl)c32)C1       IC50           µM         0.938
4  CCOc1cc(Cl)c(Cl)c2c1c(-c1cn[nH]c1)c1n2CC[C@H]1NC(C)=O       IC50           µM          2.05

Query: Looking for the measured IC50 of O=C(Nc1cc(Cl)c(Cl)c2[nH]c(CO)c(-c3cn[nH]c3)c12)C(F)F , can you help?
Reply: 0.163

###

Biological target: recombinant human cGAS (Homo sapiens (Human), UniProt Q8N884)
Assay: In vitro inhibition assay of cGAS activity (cGAMP production, RapidFire mass spectrometry)
Assay type: biochemical
Conditions: 10 nM recombinant human cGAS, 60 nM 75-bp dsDNA, ATP, GTP, room temperature 3 hours, read-out: IC50 (μM), In vitro inhibition assay for Compounds 1-94
parameter: IC50 (µM)
Use µM as the unit, but write only the number.

> print(dat)
                           substance.smiles  parameter  result.value
1  N#CCOc1cc(Cl)c(Cl)c2c1c(-c1cn[nH]c1)c1n2CCNC1       IC50        0.0219

Query: Need IC50, item N#CCOc1cc(Cl)c(F)c2[nH]cc(-n3ccnc3)c12
Reply: 0.0772

###

Molecular target: recombinant human cGAS (Homo sapiens (Human))
Assay: In vitro inhibition assay of cGAS activity (cGAMP production, RapidFire mass spectrometry)
Format: biochemical
Settings: 10 nM recombinant human cGAS, 60 nM 75-bp dsDNA, ATP, GTP, room temperature 3 hours, read-out: IC50 (μM), In vitro inhibition assay for Compounds 1-94
parameter: IC50 (µM)
Please state the figure in µM; there is no need to write the unit.

Query: Find the recorded IC50 belonging to O=C1NC(CO)Cn2c1c(-c1cn[nH]c1)c1ccc(Cl)c(Cl)c12 (stereo not shown) [Example 80] and report it.
Reply: 0.0818

Query: Consider next the compound N#CCNc1cc(Cl)c(Cl)c2[nH]cc(-c3cn[nH]c3)c12 [Example 63] in the same way.
Reply: 0.0273

Query: Would you mind doing O=C1Cn2c(c(-c3cn[nH]c3)c3ccc(Cl)c(Cl)c32)CN1CCO [Example 76] as well?
Reply: 0.0452

Query: How about this compound: Clc1ccc2c(-c3cn[nH]c3)c(CNc3nncs3)[nH]c2c1Cl [Example 10]
Reply: 0.0629

Query: Do the same for OCCNc1cc(Cl)c(Cl)c2[nH]cc(-c3cn[nH]c3)c12 [Example 62] please
Reply: 0.0151

Query: Do the same for O=C(CN1CCOC1=O)N1CCn2c(c(-c3cn[nH]c3)c3ccc(Cl)c(Cl)c32)C1 [Example 48] please
Reply: 0.0443

Query: Next compound: CC(=O)N(C)CC(=O)N1CCn2c(c(-c3cn[nH]c3)c3ccc(Cl)c(Cl)c32)C1 [Example 52]
Reply: 0.0975

Query: Now consider NCCN1CCn2c(c(-c3cn[nH]c3)c3ccc(Cl)c(Cl)c32)C1=O [Example 33] and answer again.
Reply: 0.0825

Query: Could you do the same for CC(=O)Nc1cc(Cl)c(Cl)c2[nH]cc(-c3cn[nH]c3)c12 [Example 66] , please?
Reply: 0.0349

Query: And then Nc1nnc(-c2[nH]c3c(Cl)c(Cl)ccc3c2-c2cn[nH]c2)o1 [Example 94] , what is it?
Reply: 0.0224

Query: Try OC1CCc2c(-c3cn[nH]c3)c3ccc(Cl)c(Cl)c3n2C1 (single isomer, unassigned) [Example 19] next.
Reply: 0.0663

Query: Query NC(=O)CNc1cc(Cl)c(Cl)c2[nH]cc(-c3cn[nH]c3)c12 [Example 64] next
Reply: 0.0486
